Biological target: human muscarinic M4 receptor (Homo sapiens, UniProt P08173)
Construct: expressed in transfected cells
Sequence (P08173 whole entry): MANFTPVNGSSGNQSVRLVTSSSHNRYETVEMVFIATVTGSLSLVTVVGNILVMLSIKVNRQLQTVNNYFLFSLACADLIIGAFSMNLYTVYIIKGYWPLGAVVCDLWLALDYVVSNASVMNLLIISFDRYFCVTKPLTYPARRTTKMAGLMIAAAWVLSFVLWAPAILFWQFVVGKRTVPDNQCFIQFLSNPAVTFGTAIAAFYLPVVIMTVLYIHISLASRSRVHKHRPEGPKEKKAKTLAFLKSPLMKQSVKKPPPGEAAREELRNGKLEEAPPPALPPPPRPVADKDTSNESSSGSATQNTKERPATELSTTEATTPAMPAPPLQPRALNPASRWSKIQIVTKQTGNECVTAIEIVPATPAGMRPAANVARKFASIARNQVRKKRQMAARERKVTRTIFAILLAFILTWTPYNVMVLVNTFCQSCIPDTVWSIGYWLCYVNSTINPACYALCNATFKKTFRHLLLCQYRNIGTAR
Experiment: Alphascreen Surefire phospho-ERK1/2 functional assay, M4
Assay type: cell-based
Conditions: CHO, read-out: % Emax cf. ACh, M4, CHO cells stably expressing human M4; relative to ACh
Label Yes when Emax is strictly below 50%; at or above that, label No.

INSERT INTO assay_data (compound, cat) VALUES
  ('CCOC(=O)N1CCC2(CC(N3CCC(C(=O)NC4(C)CCC4)CC3)C2)C1 (single isomer, unassigned) [Example 9 - Isomer 2]', 'No'),
  ('C#CCOC(=O)N1C2CCC1CC(N1CCC(C(=O)NC3(C)CCC3)CC1)C2 (single isomer, unassigned) [Example 2 - Isomer 1]', 'Yes'),
  ('CC#CCOC(=O)N1C2CCC1CC(N1CCC(C(=O)NC3(C)CCC3)CC1)C2 (single isomer, unassigned) [Example 3 - Isomer 2]', 'No'),
  ('CCOC(=O)N1[C@@H]2CCC[C@H]1CC(N1CCC(C(=O)NC3(C)CCC3)CC1)C2 (mixture of isomers) [Example 6 - mixture of diastereomers]', 'No'),
  ('CCOC(=O)N1C2CCC1CC(N1CCC(F)(C(=O)NC3(C)CCC3)CC1)C2 (single isomer, unassigned) [Example 4 - Isomer 2]', 'Yes');

====

Target: human muscarinic M3 receptor (Homo sapiens)
Construct: expressed in transfected cells
Sequence (P20309 whole entry): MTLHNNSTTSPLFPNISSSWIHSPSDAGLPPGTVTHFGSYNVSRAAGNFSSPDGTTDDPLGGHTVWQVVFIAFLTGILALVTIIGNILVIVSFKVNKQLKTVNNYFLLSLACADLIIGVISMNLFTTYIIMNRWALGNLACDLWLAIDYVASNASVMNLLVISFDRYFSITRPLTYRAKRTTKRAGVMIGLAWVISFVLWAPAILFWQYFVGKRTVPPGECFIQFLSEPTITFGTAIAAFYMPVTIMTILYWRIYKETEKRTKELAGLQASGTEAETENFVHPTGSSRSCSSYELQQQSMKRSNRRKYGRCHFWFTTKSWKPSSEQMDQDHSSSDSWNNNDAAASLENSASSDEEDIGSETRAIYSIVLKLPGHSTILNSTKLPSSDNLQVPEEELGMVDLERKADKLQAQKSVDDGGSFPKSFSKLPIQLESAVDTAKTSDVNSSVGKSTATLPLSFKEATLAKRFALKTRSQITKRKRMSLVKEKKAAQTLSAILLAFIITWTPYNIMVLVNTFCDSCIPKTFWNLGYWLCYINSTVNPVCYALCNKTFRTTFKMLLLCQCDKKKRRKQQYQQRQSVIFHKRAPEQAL
Experiment: Alphascreen Surefire phospho-ERK1/2 functional assay, M3
Type: cell-based
Conditions: CHO cells stably expressing human M3; phospho-ERK1/2; read-out: pEC50 M3 (converted)
EC50 listing for selected compounds.
measure: EC50

INSERT INTO assay_data (compound, tested_system, result) VALUES
  ('C#CCOC(=O)N1C2CCC1CC(N1CCC(C(=O)NC3(C)CCC3)CC1)C2 (single isomer, unassigned) [Example 2 - Isomer 1]', 'human muscarinic M3 receptor (Homo sapiens)', '> 20 µM'),
  ('CC#CCOC(=O)N1CCC2(CC(N3CCC(C(=O)NC4(C)CCC4)CC3)C2)C1 (mixture of isomers) [Example 10 - mixture of diastereomers]', 'human muscarinic M3 receptor (Homo sapiens)', '> 20 µM'),
  ('CCOC(=O)N1CCC2(CC(N3CCC(F)(C(=O)NC4(C)CCC4)CC3)C2)C1 (mixture of isomers) [Example 11 - mixture of diastereomers]', 'human muscarinic M3 receptor (Homo sapiens)', '> 20 µM');

====

Emax listing for selected molecules.
Biological target: human muscarinic M2 receptor (Homo sapiens, UniProt P08172)
Construct: expressed in transfected cells
Sequence (P08172 whole entry): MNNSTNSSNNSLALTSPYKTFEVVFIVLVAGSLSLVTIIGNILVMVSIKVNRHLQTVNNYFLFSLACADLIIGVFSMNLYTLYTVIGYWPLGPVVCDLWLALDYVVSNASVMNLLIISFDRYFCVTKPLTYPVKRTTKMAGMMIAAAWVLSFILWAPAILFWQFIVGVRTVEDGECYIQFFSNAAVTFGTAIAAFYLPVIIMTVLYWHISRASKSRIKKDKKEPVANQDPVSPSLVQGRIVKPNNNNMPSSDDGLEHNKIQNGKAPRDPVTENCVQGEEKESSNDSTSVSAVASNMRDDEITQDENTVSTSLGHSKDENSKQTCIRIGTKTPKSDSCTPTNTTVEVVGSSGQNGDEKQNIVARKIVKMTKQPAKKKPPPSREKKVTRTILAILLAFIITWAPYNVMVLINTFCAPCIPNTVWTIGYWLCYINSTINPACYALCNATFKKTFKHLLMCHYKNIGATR
Assay: Alphascreen Surefire phospho-ERK1/2 functional assay, M2
Format: cell-based
Details: CHO, read-out: % Emax cf. ACh, M2
measure: Emax (%)

INSERT INTO assay_data (molecule, tested_system, quantity_unit, number) VALUES
  ('C#CCOC(=O)N1C2CCC1CC(N1CCC(C(=O)NC3(C)CCC3)CC1)C2 (single isomer, unassigned) [Example 2 - Isomer 1]', 'human muscarinic M2 receptor (Homo sapiens, UniProt P08172)', '%', 14),
  ('[2H]C([2H])([2H])C1(NC(=O)C2CCN(C3CC4(CCN(C(=O)OCC)C4)C3)CC2)CCC1 (single isomer, unassigned) [Example 21 - Isomer 2]', 'human muscarinic M2 receptor (Homo sapiens, UniProt P08172)', '%', 9),
  ('CCOC(=O)N1CC2CC(N3CCC(C(=O)NC4(C)CCC4)CC3)CC1C2 (mixture of isomers) [Example 7 - mixture of diastereomers]', 'human muscarinic M2 receptor (Homo sapiens, UniProt P08172)', '%', 10),
  ('CCOC(=O)N1[C@@H]2CCC[C@H]1CC(N1CCC(C(=O)NC3(C)CCC3)CC1)C2 (mixture of isomers) [Example 6 - mixture of diastereomers]', 'human muscarinic M2 receptor (Homo sapiens, UniProt P08172)', '%', 13),
  ('CC#CCOC(=O)N1C2CCC1CC(N1CCC(C(=O)NC3(C)CCC3)CC1)C2 (single isomer, unassigned) [Example 3 - Isomer 2]', 'human muscarinic M2 receptor (Homo sapiens, UniProt P08172)', '%', 10),
  ('C#CCOC(=O)N1CC2(CCC(N3CCC(C(=O)NC4(C)CCC4)CC3)C2)C1 (racemic) [Example 13 - racemic]', 'human muscarinic M2 receptor (Homo sapiens, UniProt P08172)', '%', 7);
